measurement_notes: blockers of RIG-like receptor reporter activation – cell-based, Sendai virus stimulus, luciferase, 10K MLSCN set, TLR/RLR signaling modifier project, primary screen (AID 602276);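 note: firefly luciferase from ISG56 promoter only with Renilla not read in this screen; 0% = Sendai virus plus DMSO and 100% = medium plus DMSO without virus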
condition_summary: HEK293 RL24 IRF3 luciferase reporter, at 10 µM, stronger effect = higher value
Entries and their measured inhibition follow.
Give the number; % is assumed, so skip it.

Known inhibition results, listed for orientation:
smiles_structure	inhibition, %
CCCOc1ccc(S(=O)(=O)NCCCN2CCOCC2)c2ccccc12	16
Cc1occc1-c1nc(-c2ccncc2)no1	-46.9
O=C(CN1CCN(c2ccccn2)CC1)N1c2ccccc2CCc2ccccc21	13
N#Cc1c2n(c(=O)[nH]c1=O)CCCCC2	-7.37
CCOC(=O)N1CCC(NC(=O)CCN2C(=O)COc3ccccc32)CC1	17

Lab note: next molecule to report on.
Quick one: give measured inhibition for "Cc1ccc(C)c(NS(=O)(=O)c2ccc(NC(=O)c3ccco3)cc2)c1"
0.316
